As shown below, each of these compounds has a reported EC50 value.
experimental-system: human serotonin receptor clone 5-HT2C (Homo sapiens)
Sequence (P28335 33-458): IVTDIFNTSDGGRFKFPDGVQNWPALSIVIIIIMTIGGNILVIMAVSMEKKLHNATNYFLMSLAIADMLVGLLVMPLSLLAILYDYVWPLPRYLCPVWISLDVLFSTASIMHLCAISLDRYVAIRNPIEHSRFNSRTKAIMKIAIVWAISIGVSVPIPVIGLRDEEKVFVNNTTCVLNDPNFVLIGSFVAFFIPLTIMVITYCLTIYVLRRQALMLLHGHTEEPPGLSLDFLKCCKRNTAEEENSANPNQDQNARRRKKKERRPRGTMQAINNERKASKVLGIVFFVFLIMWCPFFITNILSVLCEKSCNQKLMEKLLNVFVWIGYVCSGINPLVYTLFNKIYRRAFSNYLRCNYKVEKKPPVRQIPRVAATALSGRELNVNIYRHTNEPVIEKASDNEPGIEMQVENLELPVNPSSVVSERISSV
measurement-protocol: h5-HT2 functional assay, CHO-K1 aequorin luminescence (5-HT2C)
test-conditions: CHO-K1 cells, aequorin, Gα16; read-out: h5-HT 2C EC50
Reply with just the number (in nM).

COc1cccc(COc2cc3c(cc2C)CCNCC3)c1 [Example 8]
4.5
COc1cccc(Cc2ccc3c(c2)CCNCC3)c1 [Example 1]
1.1
Oc1cccc(Cc2ccc3c(c2)CCNCC3)c1 [Example 2]
8.8
COc1cc(Cc2ccc3c(c2)CCNCC3)cc(OC)c1 [Example 3]
20

Please examine the following record next.
Task: State the recorded EC50 for this entry: COc1cccc(OCc2ccc3c(c2)CCNCC3)c1 [Example 6]
Output: 3.9

* * *

experimental-system: recombinant rat 5-HT2C receptor (Rattus norvegicus, UniProt P08909)
Construct: expressed in transfected cells; host or cells: SR3T3 cells
Sequence (P08909 33-460): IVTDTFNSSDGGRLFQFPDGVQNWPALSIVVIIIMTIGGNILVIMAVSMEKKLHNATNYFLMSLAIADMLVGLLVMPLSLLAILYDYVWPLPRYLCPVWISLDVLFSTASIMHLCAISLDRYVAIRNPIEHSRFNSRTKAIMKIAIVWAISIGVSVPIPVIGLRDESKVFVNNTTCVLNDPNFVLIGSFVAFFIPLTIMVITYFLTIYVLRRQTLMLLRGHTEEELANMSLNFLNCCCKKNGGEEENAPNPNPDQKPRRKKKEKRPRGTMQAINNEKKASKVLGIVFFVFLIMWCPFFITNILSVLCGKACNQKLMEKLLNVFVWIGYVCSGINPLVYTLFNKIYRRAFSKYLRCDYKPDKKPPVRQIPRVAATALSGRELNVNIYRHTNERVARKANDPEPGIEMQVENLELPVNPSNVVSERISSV
measurement-protocol: r5-HT2C functional assay: FLIPR, SR3T3 cells
Assay type: cell-based
test-conditions: SR-3T3; percentage of maximum 5-HT-induced response; SR3T3 cells; read-out: r5-HT 2C (Emax)
Procedure: The receptor-mediated mobilization of intracellular calcium ([Ca^2+]i) was studied using the Fluorescence Imaging Plate Reader (FLIPR) instrument. […] At the beginning of an experimental run, a signal test was performed to check the basal fluorescence signal from the dye-loaded cells and the uniformity of the signal across the plate. The basal fluorescence was adjusted between 8000-12000 counts by modifying the exposure time, the camera F-stop, or the laser power. […]
readout-label: Emax
Quote the value and follow it with the unit of measurement.

Task: Param item = Oc1cccc(Cc2ccc3c(c2)CCNCC3)c1 [Example 2] ; retrieve measured Emax.
Output: 100%

Task: Also, COc1cc(Cc2ccc3c(c2)CCNCC3)cc(OC)c1 [Example 3] please.
Output: 70%

Task: And for COc1cccc(Cc2ccc3c(c2)CCNCC3)c1 [Example 1] ?
Output: 100%

Task: Oc1cccc(OCc2ccc3c(c2)CCNCC3)c1 [Example 7] ?
Output: 92%

Task: What would you report for COc1cccc(COc2cc3c(cc2C)CCNCC3)c1 [Example 8] ?
Output: 102%

Task: Please do the same for COc1cccc(OCc2ccc3c(c2)CCNCC3)c1 [Example 6] as well.
Output: 89%

* * *

experimental-system: r5-HT2A (Rattus norvegicus, UniProt P14842)
Construct: endogenous in cells
Sequence (P14842 whole entry): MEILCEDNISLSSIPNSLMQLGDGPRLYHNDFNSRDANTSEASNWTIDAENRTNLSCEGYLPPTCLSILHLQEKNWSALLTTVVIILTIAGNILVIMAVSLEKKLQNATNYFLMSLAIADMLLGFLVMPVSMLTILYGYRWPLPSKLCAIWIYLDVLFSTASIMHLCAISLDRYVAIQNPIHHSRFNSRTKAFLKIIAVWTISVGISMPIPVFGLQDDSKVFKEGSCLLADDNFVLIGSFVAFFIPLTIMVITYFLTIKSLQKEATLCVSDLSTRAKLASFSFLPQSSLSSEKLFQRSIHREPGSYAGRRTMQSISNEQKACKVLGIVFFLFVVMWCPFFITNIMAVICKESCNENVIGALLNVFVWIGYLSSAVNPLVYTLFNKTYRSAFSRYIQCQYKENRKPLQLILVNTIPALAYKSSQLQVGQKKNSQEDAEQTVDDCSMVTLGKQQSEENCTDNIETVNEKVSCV
measurement-protocol: r5-HT2A functional assay: FLIPR, intracellular calcium mobilization in A7r5 cells
test-conditions: FLIPR, rat A7r5 vascular smooth muscle cells; read-out: r5-HT 2A EC50
readout-label: pEC50
For clarity, pEC50 is expressed as the negative log10 of concentration in mol/L.

Worked examples, 3 compounds total:
Oc1cccc(OCc2ccc3c(c2)CCNCC3)c1 [Example 7]
6.36
COc1cccc(COc2cc3c(cc2C)CCNCC3)c1 [Example 8]
5.72
COc1cccc(Cc2ccc3c(c2)CCNCC3)c1 [Example 1]
6.41

Next up:
Task: Please give the measured pEC50 for this compound: COc1cccc(OCc2ccc3c(c2)CCNCC3)c1 [Example 6]
Output: 7.16

* * *

experimental-system: human serotonin receptor clone 5-HT2A (Homo sapiens)
Sequence (P28223 whole entry): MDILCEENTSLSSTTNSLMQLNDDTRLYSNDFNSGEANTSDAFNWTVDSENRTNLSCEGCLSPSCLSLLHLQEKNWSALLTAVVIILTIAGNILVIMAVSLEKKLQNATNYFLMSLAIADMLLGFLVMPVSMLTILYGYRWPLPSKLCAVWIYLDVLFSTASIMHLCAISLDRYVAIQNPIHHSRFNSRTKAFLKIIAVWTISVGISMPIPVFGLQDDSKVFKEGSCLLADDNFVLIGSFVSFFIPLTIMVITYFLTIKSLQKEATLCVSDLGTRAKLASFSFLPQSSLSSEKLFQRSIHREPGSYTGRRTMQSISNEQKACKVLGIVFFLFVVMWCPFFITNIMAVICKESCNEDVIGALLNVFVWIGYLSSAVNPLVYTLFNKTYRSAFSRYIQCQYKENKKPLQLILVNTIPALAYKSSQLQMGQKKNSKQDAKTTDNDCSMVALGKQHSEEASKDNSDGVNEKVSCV
measurement-protocol: h5-HT2 functional assay, CHO-K1 aequorin luminescence (5-HT2A)
test-conditions: CHO-K1 cells, aequorin, Gα16; read-out: h5-HT 2A EC50
readout-label: EC50 (nM)
Number in nM, nothing else.

Would you please look over these solved cases?
COc1cc(Cc2ccc3c(c2)CCNCC3)cc(OC)c1 [Example 3]
16.9
COc1cccc(Cc2ccc3c(c2)CCNCC3)c1 [Example 1]
1.5
COc1cccc(OCc2ccc3c(c2)CCNCC3)c1 [Example 6]
0.4
Oc1cccc(Cc2ccc3c(c2)CCNCC3)c1 [Example 2]
31

Task: Reported EC50, compound COc1cccc(COc2cc3c(cc2C)CCNCC3)c1 [Example 8] : ____
Output: 2.4
